Assay: NCI Yeast Anticancer Drug Screen. Data for the mlh1 rad18 strain (AID 175)
Conditions: S. cerevisiae mlh1 rad18 strain growth inhibition; at 50.0 µM (retest, dose inferred, filed as 5.0)
The panel holds about 79,000 compounds, 15% with a hit somewhere; the sample as a whole holds those more often. The source made the active and inactive calls. No stated cut-off is given here; in the data, active means growth inhibition above about 70%; inactive means the rest.
Log the outcome using a class from active, inactive

{"SMI": "Cc1cc([N+](=O)[O-])cc(C)c1OC(=O)Nc1c(Cl)cccc1Cl", "ASSIGNED_LABEL": "inactive"}

IN: For `Cc1nc(N)sc1N=Nc1ccc(Cl)cc1` , what call appears in the results of this test?
OUT: active

IN: For `c1ccc([Si](C[CH2][Sn]([c]2ccccc2)([c]2ccccc2)[c]2ccccc2)(c2ccccc2)c2ccc([Si](C[CH2][Sn]([c]3ccccc3)([c]3ccccc3)[c]3ccccc3)(c3ccccc3)c3ccccc3)cc2)cc1` , what call appears in the results of this test?
OUT: active

IN: For `C#CC[N+](CC)(CC)CCNC(=O)CCCCCCCCCCCCCCC` , what call appears in the results of this test?
OUT: active
